- Test system: Sweetpotato Whitefly (Bemisia tabacia)
- assay-comment: Insecticidal test for sweetpotato whitefly, spray on cotton plants
- Type: in vivo
- Design: key: A: 90–100; B: 80–89; C: 70–79; D: 60–69; E: 50–59; F: less than 50; G: Inactive
- run-conditions: 200 ppm spray, 13 days, large nymphs
experimental-readout: WF: activity at 200 ppm against whitefly (% control rating)

Consider the reported WF: activity at 200 ppm against whitefly (% control rating) for these compounds:
Cn1nc(-c2c(F)cccc2Cl)nc1-c1csc(-c2ccc(OC(F)(F)F)cc2F)c1 : G
Cc1sc(-c2cccc(OC(F)(F)F)c2)cc1-c1nc(-c2c(F)cccc2Cl)nn1C : F (less than 50)
Cc1c(-c2nc(-c3c(F)cccc3Cl)nn2C)csc1-c1ccc(Cl)c(F)c1 : G
Cc1c(-c2nc(-c3c(F)cccc3Cl)nn2C)csc1-c1ccc(C(F)(F)F)cc1F : A (90–100)
Cn1nc(-c2c(F)cccc2Cl)nc1-c1cc(-c2ccc(Cl)cc2F)sc1Cl : F (less than 50)
Cc1sc(-c2ccc(Cl)cc2F)cc1-c1nc(-c2c(F)cccc2Cl)nn1C : F (less than 50)

Given CCCOc1ccc(-c2scc(-c3nc(-c4c(F)cccc4Cl)nn3C)c2C)cc1 , state its recorded WF: activity at 200 ppm against whitefly (% control rating).
A (90–100)

What value of WF: activity at 200 ppm against whitefly (% control rating) has been reported for the following compound? Cc1c(-c2nc(-c3c(F)cccc3Cl)nn2C)csc1-c1ccc(F)cc1
F (less than 50)

====

Hi there, I'd appreciate the recorded melting point for every entry that follows.

For Cn1nc(-c2c(F)cccc2Cl)nc1-c1cc(-c2cccc(C(F)(F)F)c2)sc1Cl , what is its reported melting point?
53 to 54 °C

Given the entry Cc1c(-c2nc(-c3c(F)cccc3Cl)nn2C)csc1-c1ccc(OC(F)(F)F)cc1 , report its measured melting point.
124 to 125 °C

What does the data say about its melting point? Entry: Cn1nc(-c2c(F)cccc2Cl)nc1-c1cc(-c2ccc(OC(F)(F)F)cc2)sc1Br
135 to 136 °C

Given the entry Cc1sc(-c2ccc(OC(F)(F)F)cc2)cc1-c1nc(-c2c(F)cccc2Cl)nn1C , report its measured melting point.
153 to 155 °C

Which value of melting point has been reported for Cc1c(-c2nc(-c3c(F)cccc3Cl)nn2C)csc1-c1ccc(OC(F)(F)C(F)C(F)(F)F)cc1 (centres unmarked) in the records?
114 to 116 °C

====

- Tested on: Cotton Aphid (Aphis gossypii)
- assay-comment: Insecticidal test for cotton aphid, spray on infested squash cotyledons
- Format: in vivo
- run-conditions: 50 ppm spray, 3 days
- Procedure: Insecticidal Test for Cotton Aphid (Aphis gossypii) To prepare spray solutions, 1 mg of each test compound was dissolved into 1 mL of a 90:10 acetone:ethanol solvent. This 1 mL of chemical solution was added to 19 mL of water containing 0.05% Tween 20 surfactant to produce a 50 ppm spray solution. Squash cotyledons were infested with cotton aphid (all life stages) 16–20 hours prior to application of spray solution. […]
experimental-readout: CA: activity at 50 ppm against cotton aphid (% control rating)

Cc1c(-c2ccc(OC(F)(F)C(F)C(F)(F)F)cc2)csc1-c1nc(-c2c(F)cccc2Cl)nn1C (stereo not drawn) : D (60–69)
Cc1c(-c2nc(-c3c(F)cccc3Cl)nn2C)csc1-c1ccc(OC(F)(F)C(F)C(F)(F)F)cc1 (stereo not drawn) [drawing 216] : D (60–69)
Cc1c(-c2nc(-c3c(F)cccc3Cl)nn2C)csc1-c1ccc(OC(F)(F)C(F)F)cc1 : C (70–79)
Cn1nc(-c2c(F)cccc2Cl)nc1-c1cc(-c2ccc3c(c2)OCC3)sc1Cl : C (70–79)
Cn1nc(-c2c(F)cccc2Cl)nc1-c1cc(-c2cccc(OC(F)(F)F)c2)sc1Cl : A (90–100)
Cc1cc(-c2ccc(OC(C)C)cc2)sc1-c1nc(-c2c(F)cccc2Cl)nn1C : D (60–69)

Entry Cc1c(-c2nc(-c3c(F)cccc3Cl)nn2C)csc1-c1ccc(C(F)(F)F)cc1F has what CA: activity at 50 ppm against cotton aphid (% control rating)?
A (90–100)

====

- Test system: Sweetpotato Whitefly (Bemisia tabacia)
- assay-comment: Insecticidal test for sweetpotato whitefly, spray on cotton plants
- Format: in vivo
- run-conditions: 200 ppm spray, 13 days, large nymphs
experimental-readout: WF: activity at 200 ppm against whitefly (% control rating)

Solved entries (count: 5):
Cc1c(-c2nc(-c3c(F)cccc3Cl)nn2C)csc1-c1ccc(Oc2ccccc2)cc1 : A (90–100)
Cc1c(-c2nc(-c3c(F)cccc3Cl)nn2C)csc1-c1ccc(OC(F)(F)C(Cl)Cl)cc1 : A (90–100)
Cc1c(-c2nc(-c3c(F)cccc3Cl)nn2C)csc1-c1ccc(F)cc1F [drawing 233] : F (less than 50)
Cn1nc(-c2c(F)cccc2Cl)nc1-c1cc(-c2ccc(C(F)(F)F)cc2F)sc1Cl : F (less than 50)
Cc1c(-c2nc(-c3c(F)cccc3Cl)nn2C)csc1-c1ccc(OC(F)(F)C(F)Br)cc1 (centres unmarked) : A (90–100)

Entry Cc1c(-c2nc(-c3c(F)cccc3Cl)nn2C)csc1-c1ccc(OC(F)(F)C(F)Cl)cc1 (centres unmarked) has what WF: activity at 200 ppm against whitefly (% control rating)?
A (90–100)

What measured WF: activity at 200 ppm against whitefly (% control rating) goes with Cc1c(-c2nc(-c3c(F)cccc3Cl)nn2C)csc1-c1cc(C(F)(F)F)ccc1F ?
F (less than 50)

What value of measured WF: activity at 200 ppm against whitefly (% control rating) is listed for Cc1c(-c2nc(-c3c(F)cccc3Cl)nn2C)csc1-c1ccc(Cl)cc1F ?
G

What does the data say about its WF: activity at 200 ppm against whitefly (% control rating)? Entry: Cc1c(-c2ccc(OC(F)(F)C(F)Cl)cc2)csc1-c1nc(-c2c(F)cccc2Cl)nn1C (centres unmarked)
A (90–100)

Fill in the blank: the reported WF: activity at 200 ppm against whitefly (% control rating) of COCCOc1ccc(-c2scc(-c3nc(-c4c(F)cccc4Cl)nn3C)c2C)cc1 is ____.
F (less than 50)

Sourced from patent US7056940B2
